Parameter: degree of damage to the plants, Setaria. Scope: all listed entries.
tested on: Setaria; assay: Pre-emergence test/greenhouse; format: in vivo; details: greenhouse, 60 g of ai/ha, rated after three weeks

COMPOUND_SMILES | RESULT_UNITS | degree of damage to the plants, Setaria
CCc1nn(C(=O)NS(=O)(=O)c2c(C(=O)OC)csc2C)c(=O)n1C | % | 100
COC(=O)c1csc(C)c1S(=O)(=O)NC(=O)n1nc(SC)n(C)c1=O | % | 100
COC(=O)c1csc(C)c1S(=O)(=O)NC(=O)n1nc(OC)n(C)c1=O | % | 95
CCOc1nn(C(=O)NS(=O)(=O)c2c(C(=O)OC)csc2C)c(=O)n1C | % | 90
